Attribution: PubChem BioAssay

Target: Fibroblast growth factor 10 (Homo sapiens) (UniProt O15520)
Sequence (O15520 whole entry, looked up): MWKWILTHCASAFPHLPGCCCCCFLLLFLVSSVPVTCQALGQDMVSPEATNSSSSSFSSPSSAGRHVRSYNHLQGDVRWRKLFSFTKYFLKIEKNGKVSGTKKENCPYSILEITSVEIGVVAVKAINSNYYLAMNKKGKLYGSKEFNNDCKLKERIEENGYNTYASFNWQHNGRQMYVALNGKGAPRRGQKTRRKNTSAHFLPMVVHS
Assay: FGF10 binders on small-molecule microarrays, primary screen, biochemical, small-molecule microarray, 635 nm fluorescence (AID 1102)
Conditions: FGF10 binding, fluorescence 635 nm, higher = more signal
Examples of compounds with documented composite z-score follow.
MEASURED_ATTRIBUTE: composite z-score

smiles_str=C=CCC1(CC=C)C[C@H]2CO[C@H](c3ccc(OC)cc3)N2C1=O value_observed=-0.193
smiles_str=CC(C)(C)OC(=O)CC[C@@]12N=C(c3ccc(OCCCO)cc3)O[C@@H]1c1ccccc1CN(Cc1ccccc1)C2=O value_observed=1.14
smiles_str=CCCCCCC#C[Si](O[C@H](c1ccccc1)c1cn(Cc2ccccc2)nn1)(C(C)C)C(C)C value_observed=0.232
smiles_str=COc1ccc(/C=C/C(=O)c2cccc(OCC(=O)OC(C)(C)C)c2)cc1 value_observed=-0.189
smiles_str=C=C(COC)/C(=C/C[C@H](OC(C)=O)c1ccc(CO)o1)c1cnc2ccccc2c1 value_observed=0.979

* * *

Assay: CREB reporter modulators under forskolin, primary screen, cell-based, PC12, CRE-LacZ reporter, forskolin-stimulated (AID 1146);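 also: PC12 cells with 6xCRE LacZ reporter stimulated by forskolin 10 µM; beta-galactosidase reporter signal reflecting CREB driven transcription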
Conditions: luminescence, 4.5 h, higher = more signal, called active from +8 up or from −8 down
MEASURED_ATTRIBUTE: z-score

compound=O=C1c2ccccc2C(=O)c2cc([C@H]3Oc4ccccc4S(=O)(=O)N4CCC[C@@H]34)ccc21 value_observed=-1.21
compound=CO[C@H]1O[C@H](CO)[C@@H](OC(=O)Nc2ccccc2)[C@H](OC(=O)Nc2ccc3c(c2)OCO3)[C@H]1OC(=O)Nc1ccc2c(c1)OCO2 value_observed=-2.46
compound="CC(C)N1CC=CC23O[C@@H]4/C=C\\CCCOC(=O)C4[C@H]2C(=O)N(CCCO)[C@@H]3C1=O (some centres undefined)" value_observed=-0.256
compound=Cc1ccc(N2C(=O)c3ccccc3[C@](C)(C(=O)NC3CC3)[C@@H]2c2ccc(CO)cc2)nc1 value_observed=-0.732
compound=COc1ccc([Si](C)(C)[C@@H]2[C@@H](CC(=O)N3CCC[C@H]3CO)O[C@]3(C(=O)N(Cc4ccc(I)cc4)c4ccccc43)[C@H]2C)cc1 value_observed=-1.86
compound="C=CCC(OC(C)=O)[C@@H]1[C@@H](N(Cc2ccc(-c3cccc(C(F)(F)F)c3)o2)C(=O)c2ccc(-c3ccccc3)cc2)c2cc(OCCCO)ccc2N1C(=O)Cc1ccc(OC)cc1 (some centres undefined)" value_observed=-0.0892
compound="C=CCC(OC(C)=O)[C@@H]1[C@@H](N(Cc2cccc3ccccc23)C(=O)c2cccc3ccccc23)c2cc(OCCCO)ccc2N1C(=O)Cc1ccc(OC)cc1 (some centres undefined)" value_observed=-0.876
compound=C=CCNC(=O)[C@@H]1[C@H]2C(=O)O[C@H](c3ccccc3)[C@H](c3ccccc3)N2[C@H](c2ccc(O)cc2)[C@@]12C(=O)Nc1ccc(C#Cc3ccc(OC)cc3)cc12 value_observed=-1.25
compound=NC(=O)NCC#Cc1ccc2c(c1)[C@]1(C(=O)N2)[C@H](c2ccc(OCCO)cc2)N2[C@H](c3ccccc3)[C@H](c3ccccc3)OC(=O)[C@H]2[C@@H]1C(=O)Nc1nc2ccccc2s1 value_observed=0.625

* * *

Assay: binders of probe aHhip on microarray, primary screen, stem cell growth factor project, biochemical, small-molecule microarray, fluorescence 635/667 (AID 1087);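 also: score merges spot fluorescence at 667nm with spot signal to noise ratio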
Conditions: higher = more signal
composite z-score vs -0.1: at or above is true, below is false.

molecule="CC(C)CCC[C@@H](C)[C@H]1CC[C@@]2(C)C3=C(CC[C@]12C)[C@@]1(C)CC[C@H](OC(=O)CCl)C(C)(C)C1CC3 (stereo not given in full)" discrete_label=true
molecule=COC(=O)c1c(CC[C@@H](CO)NC(=O)Nc2ccc(OC)cc2)oc(C(=O)Cc2ccccc2)c1C(=O)OC discrete_label=true
molecule=C=C(CCCC)/C(=C/C[C@@H](OC(=O)c1ccncc1)c1ccc(OCCO)cc1)c1cnc2ccccc2c1 discrete_label=false
molecule=COCCCNC(=O)[C@@]1(CCS(=O)(=O)c2ccccc2)N=C(c2ccc(OCCCO)cc2)O[C@H]1c1ccccc1CN=[N+]=[N-] discrete_label=true
molecule=COc1ccc([Si](C)(C)[C@H]2[C@H](CC(=O)N(CCO)Cc3ccccc3)O[C@@]3(C(=O)N(Cc4ccc(N5CCOC5=O)cc4)c4ccccc43)[C@@H]2C)cc1 discrete_label=true
molecule=O=C1O[C@H](c2ccccc2)[C@H](c2ccccc2)N2[C@H]1[C@@H](C(=O)Nc1nc3ccccc3s1)[C@]1(C(=O)Nc3ccc(C#CCCO)cc31)[C@H]2c1ccccc1OCCO discrete_label=true
molecule="CC(=O)OC(C/C=C\\B1OC(C)(C)C(C)(C)O1)c1ccccc1 (stereo not given)" discrete_label=false
molecule=COCCOC(=O)N1C(=O)[C@@]2(c3cc(C#CCCO)ccc31)[C@H](c1ccccc1OCCO)N1[C@H](c3ccccc3)[C@H](c3ccccc3)OC(=O)[C@H]1[C@@H]2C(=O)NC[C@H](O)c1ccccc1 discrete_label=true
molecule="CCN(CC)c1ccc(N2CC=CC34O[C@@H]5C=CCOC(=O)[C@@H]5[C@H]3C(=O)N(C(CO)C(C)C)[C@@H]4C2=O)cc1 (stereo not given in full)" discrete_label=false
molecule=COc1ccc([Si](C)(C)[C@H]2[C@H](CC(=O)N(CCO)Cc3ccccc3)O[C@@]3(C(=O)N(Cc4ccc(N5CCC5=O)cc4)c4ccccc43)[C@@H]2C)cc1 discrete_label=false
molecule=COCCOC(=O)N1C(=O)[C@@]2(c3cc(C#CC4(O)CCCCCC4)ccc31)[C@H](c1ccccc1OCCO)N1[C@H](c3ccccc3)[C@H](c3ccccc3)OC(=O)[C@H]1[C@@H]2C(=O)Nc1nc2ccccc2s1 discrete_label=false
molecule=NCCCCCNC(=O)[C@H]1C[C@H]2C(=O)NCC(=O)N2[C@H]1c1ccc(O)cc1 discrete_label=true
molecule=COc1ccc([Si](C)(C)[C@H]2[C@H](CCO)O[C@@]3(C(=O)N(Cc4ccc(N5C(=O)c6cccc7cccc5c67)cc4)c4ccccc43)[C@@H]2C)cc1 discrete_label=false
molecule=CCOC(=O)C[C@H]1[C@H](OC(=O)c2ccc(-c3ccccc3)cc2)[C@@H](NC(=O)C2CCCCC2)c2cc(OCCCO)ccc2N1C(=O)c1ccc2ccccc2n1 discrete_label=false
molecule=CCCCC(=C=CC[C@H](O)c1cccc(OCCO)c1)CCO discrete_label=true
molecule=C=CC[C@@H](OC(=O)Nc1ccc(SC)cc1)c1ccc(OCCO)cc1 discrete_label=false
molecule=C=C(/C(=C/C[C@H](OC(=O)c1ccncc1)c1cccc(OCCO)c1)c1cc(C(=O)OC)ccc1OC)C(C)C discrete_label=true
molecule=O=C(NCc1ccccc1)[C@@H]1c2ccccc2C(=O)N(Cc2ccccc2Cl)[C@H]1c1ccc(CO)cc1 discrete_label=true

* * *

Assay: cell viability in Huh7 cells, primary screen, cytotoxicity control for HCV replication inhibitor project, CellTiter-Glo luminescence, basal, 48 h (AID 1143);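 also: Huh7 hepatoma cells carrying a hepatitis C replication reporter with no stimulus; test concentration not given here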
Details: Huh7 HCV replicon, higher = more signal, called active from +8 up or from −8 down
Note: every record was labeled by where its z-score sits among bottom end: < -3; midrange: ≥ -3 and < -2; top end: ≥ -2

compound=C[N+](C)(C)CCCCNC(=O)[C@@H]1C[C@@H]2C(=O)NCC(=O)N2[C@@H]1c1cccc(OCCO)c1 discrete_label="top end"
compound="CC(C)CCC[C@@H](C)[C@H]1CC[C@@]2(C)C3=C(CC[C@]12C)[C@@]1(C)CC[C@H](OC(=O)CCl)C(C)(C)C1CC3 (some centres not stated)" discrete_label="top end"
compound=CC(C)C[C@@H]1NC(=O)[C@@H]2C[C@H](C(=O)NCCCCCNC(=O)CS)[C@H](c3cccc(OCCO)c3)N2C1=O discrete_label="top end"
compound="CCCCCN1CC=CC23O[C@@H]4/C=C\\CCC(C)OC(=O)C4[C@H]2C(=O)N(CCCO)[C@@H]3C1=O (some centres not stated)" discrete_label="top end"
compound="CC(=O)OC(C/C=C\\B1OC(C)(C)C(C)(C)O1)c1ccccc1 (configuration not stated)" discrete_label="bottom end"
compound=C#CCOc1ccc(C[C@H]2C(=O)O[C@H](Cc3ccccc3)[C@H](/C=C/C3CC3)N2CC#C)cc1 discrete_label=midrange
compound=CCCCC(=C=CC[C@@H](O)c1ccc(OCCO)cc1)C[C@@H](O)c1cc(Cl)cc(Cl)c1O discrete_label=midrange
compound=C=C(C(=O)CC[C@@H](OC(C)=O)c1ccccc1OCCO)C(C)C discrete_label="bottom end"
compound=COc1ccc([Si](C)(C)[C@H]2[C@H](CC(=O)N(CCO)Cc3ccccc3)O[C@@]3(C(=O)N(Cc4cccc(N5C(=O)COc6ccccc65)c4)c4ccccc43)[C@@H]2C)cc1 discrete_label="bottom end"
compound=COc1ccc([Si](C)(C)[C@H]2[C@H](CC(=O)N(CCO)Cc3ccccc3)O[C@@]3(C(=O)N(Cc4ccc(N5CCOC5=O)cc4)c4ccccc43)[C@@H]2C)cc1 discrete_label=midrange
compound="NC(=O)N1C(=O)C2C(C1=O)C1C=C(c3ccc(CO)cc3)C2C(C2CC2)N1Cc1cc2c(cc1Br)OCO2 (configuration not stated)" discrete_label="top end"
compound="CN1C=C(C(=O)OCCS(C)(=O)=O)C(C(=O)OCCS(C)(=O)=O)=CC(CCCO)=CC1c1cccs1 (configuration not stated)" discrete_label="top end"
compound=COCCOC(=O)N1C(=O)[C@@]2(c3cc(C#CC4(O)CCCCCC4)ccc31)[C@H](c1ccccc1OCCO)N1[C@H](c3ccccc3)[C@H](c3ccccc3)OC(=O)[C@H]1[C@@H]2C(=O)Nc1nc2ccccc2s1 discrete_label="bottom end"
compound=O=C1O[C@H](c2ccccc2)[C@H](c2ccccc2)N2[C@H]1[C@@H](C(=O)NC[C@H](O)c1ccccc1)[C@]1(C(=O)Nc3ccc(C#CC4(O)CCCCCC4)cc31)[C@H]2c1ccc(O)cc1 discrete_label=midrange
compound=COCCCNC(=O)[C@@]1(CCS(=O)(=O)c2ccccc2)N=C(c2ccc(OCCCO)cc2)O[C@H]1c1ccccc1CN=[N+]=[N-] discrete_label="bottom end"
compound=C=CCNC(=O)[C@@H]1[C@H]2C(=O)O[C@H](c3ccccc3)[C@H](c3ccccc3)N2[C@H](c2ccc(O)cc2)[C@@]12C(=O)Nc1ccccc12 discrete_label=midrange
compound=C=CCNC(=O)[C@H]1[C@@H]2C(=O)O[C@@H](c3ccccc3)[C@@H](c3ccccc3)N2[C@@H](c2ccccc2OCCO)[C@]12C(=O)N(C(=O)OCCOC)c1ccc(C#CCCO)cc12 discrete_label="bottom end"
compound=CO[C@H]1O[C@H](CO)[C@@H](OC(=O)Nc2ccccc2)[C@H](OC(=O)Nc2ccc3c(c2)OCO3)[C@H]1OC(=O)Nc1ccc2c(c1)OCO2 discrete_label="bottom end"
compound=O=C1O[C@H](c2ccccc2)[C@H](c2ccccc2)N2[C@H]1[C@@H](C(=O)Nc1nc3ccccc3s1)[C@]1(C(=O)Nc3ccc(C#CCCO)cc31)[C@H]2c1ccccc1OCCO discrete_label=midrange
compound="CC(C)C[C@@H]1NC(=O)[C@@]23C(=O)N[C@@H](Cc4ccccc4)C2[C@H](C)[C@@]2(C)O[C@H]2C3/C=C/CC/C=C/CNC(=O)[C@@H](C)NC1=O (some centres not stated)" discrete_label=midrange
compound=O=C1N(CCS(=O)(=O)c2ccccc2)Cc2ccccc2[C@@H]2OC(c3ccc(OCCCO)cc3)=N[C@]12Cc1ccccc1 discrete_label="bottom end"
